# ASSAY DETAILS: Acute toxicity in mice
# Assay type: in vivo
# EXPERIMENTAL CONDITIONS: mouse, in vivo, ip, intraperitoneally
PARAMETER MEASURED: LD50

Note to self: LD50 recorded for CC1=CC(O)CC(O)Cc2nc(co2)C(=O)NC(C)C(=O)OC(C(C)C)C(C)C=CC(=O)NCC=C1 (stereo not shown) was > 400 mg/kg
